- System: SARS-CoV
- assaySummary: microbe, parasite or virus in culture
- Format: cell-based
- protocolConditions: Severe acute respiratory syndrome coronavirus, Vero C1008, read-out: IC50 value for SARS-CoV (TCID50 assay)
endpointName: pIC50
Give bare numbers, as −log10 of the molar value.

Recorded pIC50 for Cc1cn(-c2cc(NC(=O)c3ccc(C)c(Nc4nccc(-c5cccnc5)n4)c3)cc(C(F)(F)F)c2)cn1 , please?
5.64

###

- System: MERS-CoV
- assaySummary: microbe, parasite or virus in culture
- Format: cell-based, MERS-CoV strain Hu/Jordan-N3/2012
- protocolConditions: read-out: MERS-CoV IC50
endpointName: IC50 (nM)
Answers are plain numbers, in nM.

Recorded IC50 for COc1ccc(C[C@H]2NC[C@H](O)[C@H]2OC(C)=O)cc1 , please?
3

###

Task for the reader: assign each of the following compounds its reported pEC50.
- Test system: MERS-CoV (Jordan)
- assaySummary: microbe, parasite or virus in culture
- Format: cell-based
- protocolConditions: Middle East respiratory syndrome-related coronavirus, Vero C1008, read-out: EC50 for MERS-CoV (virus production, TCID50)
Counter-ions that a name gives are not always drawn.
Numbers only, as −log10 of the molar value.

[
  {
    "compound": "CCN(CC)CCCC(C)Nc1ccnc2cc(Cl)ccc12 (centres unmarked) [Chloroquine Phosphate]",
    "assaySystem": "MERS-CoV (Jordan)",
    "pEC50": 4.73
  }
]

Recorded pEC50 for CN(C)CCCN1c2ccccc2Sc2ccc(Cl)cc21 [Chlorpromazine hydrochloride] , please?
4.71

The reported measurements were obtained from patent US10434116B2.
